From: PubChem BioAssay (NCI)

tested on: MDA-N; assay: NCI tumour cell line growth inhibition, 48 h
ASSAY READOUT: TGI

Past entries and their recorded results:
1. O=C1CC2C=CC(O)C(C1)C2 (stereo not drawn); > 100 µM
2. CCOC(=O)CCC(NC(=O)c1ccc(OCc2nc3cc(C(F)(F)F)ccc3nc2-c2ccccc2)cc1)C(=O)OCC (stereo not drawn); > 100 µM
3. COC(=O)C1(Cc2ccccc2)Cc2cc3c(cc2C1=O)CCC3 (stereo not drawn); 37.3 µM

Input: Return value of TGI for input CSc1nc(SC)c2c(CN=[N+]=[N-])c(Br)n(Cc3ccccc3)c2n1 , no commentary.
Output: > 100 µM

Input: Kindly indicate its recorded TGI. Item: COc1ccc(Nc2[nH]c(C(C)=O)c(N)c2C(=S)Nc2ccccc2)cc1
Output: > 100 µM

Input: Indicate the recorded TGI value for this compound: COc1cc2oc(-c3ccc(O)cc3)c(OC3OC(C)C(O)C(O)C3O)c(=O)c2c(O)c1OC (stereo not drawn)
Output: > 100 µM

Input: Provide measured TGI value, entry: CCC(=O)C(c1ccccc1)c1ccccn1 (stereo not drawn)
Output: > 100 µM

Input: Answer with the recorded TGI for the compound listed here: CCn1cc(C(c2ccc(Cl)cc2)n2ccnc2)c2cc(Br)ccc21 (stereo not drawn)
Output: 66.2 µM

====

tested on: HOP-62 NSCLC; assay: NCI tumour cell line growth inhibition, 48 h
ASSAY READOUT: TGI

Observe how each entry below is paired with its result.
1. Cc1nn(-c2ccc(S(=O)(=O)[O-])cc2)c([O-])c1N=[N+](C)c1ccc(-c2ccc(N=Nc3ccc4c(S(=O)(=O)[O-])cc(S(=O)(=O)[O-])c(N)c4c3[O-])c([O-])c2)cc1[O-].[Cu+2].[Cu+2].[Na+]; > 100 µM
2. Nc1n[nH]c2ccc([C@@H]3Nc4ccc5[nH]ncc5c4[C@H]4[C@H]5CCC(C5)[C@H]43)cc12; > 74 µM
3. Cc1c(/C=N\NC(=S)N2CCN(C(=S)N/N=C\c3c(C)n(C)n(-c4ccccc4)c3=O)CC2)c(=O)n(-c2ccccc2)n1C; > 100 µM

Input: Specify reported TGI for the compound shown: Nc1nc(Cl)cc(NCC2(CO)CC(CCc3ccccc3)C2)n1 (centres undefined)
Output: > 100 µM

====

test system: MOLT-4 leukemia; assay: NCI tumour cell line growth inhibition, 48 h
Below, each entry is listed with its recorded GI50.

Consider the following illustrative entries.
1) O=c1cc(-c2cccc(F)c2)[nH]c2cc3c(cc12)OCO3; 799 nM
2) COc1ccc(-c2cc(-c3cc(Cl)ccc3Cl)nc3[nH]c(-c4cc(F)c(Cl)cc4Cl)cc(=O)c23)cc1; 24200 nM

Input: Give reported GI50 for CN1CCN(CC#Cc2cccc(C(=O)c3cnn(-c4ccc(F)cc4)c3N)c2)CC1 (MOLT-4 leukemia)
Output: > 25000 nM

Input: Give GI50 for this entry on MOLT-4 leukemia: COC(=O)C1OC(O[C@H]2CCC3(C)C(CCC4(C)C3CC=C3C5CC(C)(C)CCC5(C(=O)O)CC[C@]34C)C2(C)C)C(O)C(OC2OC(CO)C(O)C(O)C2O)C1O (stereo not given in full)
Output: 2170 nM

Input: Write GI50 of CC1(C)N=C(N)N=C(N)N1c1ccc(CCCCc2ccc(S(=O)(=O)F)cc2)cc1 ; system used: MOLT-4 leukemia
Output: 1410 nM

====

system: HT29 colon; experiment: NCI tumour cell line growth inhibition, 48 h; in the data active means GI50 below about 0.43 µM; inactive means the rest
Would you mind answering with one of these outcomes? t for active, f for inactive

1. COc1cc2c3c(cccc3c1)C(=O)N(CCN1CCCC1)C2=O; f

Input: Just curious, what result did NC(N)=N/N=C(/c1ccccc1)c1ccc(F)cc1 get here?
Output: t

Input: Recorded test call requested for N#Cc1c(NC(=O)c2cccc(C(F)(F)F)c2)sc2c1CCC(=O)C2
Output: t

====

test system: SR leukemia; assay: NCI tumour cell line growth inhibition, 48 h
ASSAY READOUT: TGI

Study these solved cases before continuing.
1. Cc1nn(-c2ccc(S(=O)(=O)[O-])cc2)c([O-])c1N=[N+](C)c1ccc(-c2ccc(N=Nc3ccc4c(S(=O)(=O)[O-])cc(S(=O)(=O)[O-])c(N)c4c3[O-])c([O-])c2)cc1[O-].[Cu+2].[Cu+2].[Na+]; > 100 µM
2. CCOC(=O)c1cc(=C2\CCN(CC(C)CC)C2=S)/c(=C(/O)CC)[nH]1 (stereo unspecified); 26.3 µM
3. C[C@@H]1CC[C@H]2C(COCC3=C(C(F)(F)F)O[C@@H]4O[C@@]5(C)CC[C@H]6[C@H](C)CC[C@@H]3[C@@]46OO5)=C(C(F)(F)F)O[C@@H]3O[C@@]4(C)CC[C@@H]1[C@]32OO4; > 100 µM

Input: Return the recorded TGI value; entry: O=C(O)c1ccc(NC(c2ccccc2)c2ccc3cccnc3c2O)cc1 (stereo unspecified)
Output: > 100 µM

Input: Indicate the recorded TGI value for this compound: CC1C(c2cc(C(C)(C)C)c(O)c(C(C)(C)C)c2)c2cc3c(cc2OC1N1CCOCC1)OCO3 (stereo unspecified)
Output: > 100 µM

Input: Give TGI for O=c1c2ccccc2[nH]c(=S)n1-c1ccc(N=Nc2cccc3c(O)cccc23)cc1
Output: > 100 µM

Input: Given C[C@]12OC[C@H](c3ccccc3)N1C(=O)C1[C@H]2CC12SCCS2 (stereo partly specified) , respond with its TGI.
Output: > 100 µM

Input: Specify reported TGI for the compound shown: CC(=O)c1ccc(Nc2cc(-c3ccccc3)nc3c(O)cccc23)cc1
Output: 49.5 µM

====

system: HCT-15 colon; assay: NCI tumour cell line growth inhibition, 48 h; in the data active = GI50 below about 0.43 µM; inactive = the rest
# output must be one of active, inactive

Illustrative cases are given below, each with its answer.
1. Cc1ccc2c(C(C[N+](=O)[O-])c3cccs3)c(-c3ccccc3)[nH]c2c1 (centres undefined); inactive
2. Fc1cccc(COc2ccc(Nc3ncncc3C#Cc3ccccc3)cc2Cl)c1; inactive
3. CCn1c(-c2nonc2N)nc2c(C#CCN)ncc(OCCCN)c21; inactive
4. COc1ccc2cc1Oc1ccc(cc1)C[C@H]1c3cc(c(OC)cc3CCN1C)Oc1c(OC)c(OC)cc3c1[C@H](C2)N(C)CC3; inactive

Input: I would be grateful if you could indicate the recorded call for CC(C)(C)OC(=O)n1cc(CNC(=S)Nc2ccccc2)c2ccccc21 .
Output: inactive

Input: Per the records of this test, what outcome belongs to COc1ccc(-c2cc(-c3cc(Cl)ccc3Cl)nc3[nH]c(-c4cc(F)c(Cl)cc4Cl)cc(=O)c23)cc1 ?
Output: inactive

Input: Which outcome was assigned to Oc1ccccc1/C=N/Nc1ccc2ccccc2n1 in this test?
Output: inactive

Input: Fill in: this test's call for N#Cc1c(NC(=O)c2cccc(C(F)(F)F)c2)sc2c1CCC(=O)C2 is ___
Output: active

Input: Look up the recorded call for C=C1C(=O)O[C@H]2[C@H]1CC/C(CNC(=O)c1c[nH]c3ccc(F)cc13)=C\CC[C@@]1(C)O[C@@H]21 in this test.
Output: inactive

====

tested on: MDA-MB-231 breast; experiment: NCI tumour cell line growth inhibition, 48 h; in the data active = GI50 below about 0.43 µM; inactive = the rest
Give your call using only these classes: active, inactive

Illustrative cases are given below, each with its answer.
1. CC(=O)Nc1cccc(-n2c(=O)n(C3CC3)c(=O)c3c(Nc4ccc(I)cc4F)n(C)c(=O)c(C)c32)c1; active
2. Cc1cc2nc3c4cc(Cl)ccc4n(CCN(C)C)c3nc2cc1C; inactive
3. O=C(/C=C/c1ccc(Cl)cc1)c1ccc(Cl)cc1Cl; inactive
4. O=C(c1ccc2ccccc2c1)c1c(C(F)(F)F)n([O-])c2cc(Cl)c(Cl)cc2[n+]1=O; inactive
5. COC1(C(=O)N2Cc3nc(Cl)nc(N[C@H](C)c4cc(N)cc(C(F)(F)F)c4)c3C2)CCOCC1; inactive
6. C=CC(=O)Nc1cccc(-c2nc(SC)nc(Nc3ccccc3OC)c2C#N)c1; inactive

Input: Could you check what this test reported for Nc1n[nH]c2ccc([C@@H]3Nc4ccc5[nH]ncc5c4[C@H]4[C@H]5CCC(C5)[C@H]43)cc12 ?
Output: inactive

====

Measured TGI, listed per entry.
test system: OVCAR-4 ovarian; test: NCI tumour cell line growth inhibition, 48 h
Your answer should be a plain number; it is taken to be in µM.

1) C=C1C(=O)O[C@H]2[C@H]1CC/C(CNC(=O)c1c[nH]c3ccc(F)cc13)=C\CC[C@@]1(C)O[C@@H]21; 15.2
2) COc1cc2c(cc1OCCCCCOc1cc3c(cc1OC)C(=O)N1CCC[C@H]1C(=O)N3)N=C[C@@H]1CCCN1C2=O; 0.716
3) N#CC(=C1SCS1)[N+](=O)[O-]; 19
4) CC(CO)(CO)N=Cc1cc(I)cc(I)c1O; 37.2
5) Clc1nc(Cl)nc(NC23CC4CC(CC(C4)C2)C3)n1; 39.2

Next molecule, TGI to be filled in.
Input: Query TGI for c1cc(-c2cnc(-c3ccc4c(c3)CCCO4)o2)ccn1
Output: 42.3
